Where do these numbers come from? They come from patent US6432969B1.

Structures can show the parent of a compound that is named as a salt.
// reported melting point for each item listed

Answered cases to consult:
molecule | readout | result
CC(C)(CNC(=O)Nc1ccc(Cl)cc1)NCC(=O)N1CCC[C@H]1C#N (as salt: hydrochloride) | melting point | 112 to 114 °C
CC(C)(CNc1ncccc1Cl)NCC(=O)N1CCC[C@H]1C#N (as salt: hydrochloride) | melting point | 144 to 146 °C
N#Cc1ccc(NC2CCC(NCC(=O)N3CCC[C@H]3C#N)CC2)cc1 (some centres unmarked) (as salt: hydrochloride) | melting point | 165 to 167 °C
CC(C)(CNc1ncc(Cl)cc1Cl)NCC(=O)N1CCC[C@H]1C#N (as salt: hydrochloride) | melting point | 108 to 110 °C
N#C[C@@H]1CCCN1C(=O)CNC1CCC(Nc2nc3ccccc3s2)CC1 (some centres unmarked) (as salt: hydrochloride) | melting point | 246 to 248 °C

-- ask What value of measured melting point is listed for CC(C)N(C(=O)NCC(C)(C)NCC(=O)N1CCC[C@H]1C#N)C(C)C (as salt: hydrochloride) ?
-- reply 128 to 130 °C

-- ask Give its melting point value. Item: N#C[C@@H]1CCCN1C(=O)CNC1CCC(NC(=O)C2CCCCC2)CC1 (some centres unmarked) (as salt: hydrochloride)
-- reply 189 to 190 °C

-- ask # query: melting point of entry CC(C)(CNc1ncccc1C(F)(F)F)NCC(=O)N1CCC[C@H]1C#N (as salt: hydrochloride)
-- reply 112 to 114 °C

-- ask # get_value(readout='melting point', item= N#C[C@@H]1CCCN1C(=O)CNC1CCC(Nc2nc3cc(Cl)ccc3s2)CC1 (some centres unmarked) (as salt: hydrochloride) )
-- reply 290 to 294 °C

-- ask Which melting point reading was recorded for the molecule N#Cc1ccc(NC2CCC(NCC(=O)N3CCC[C@H]3C#N)CC2)nc1 (some centres unmarked) (as salt: hydrochloride) ?
-- reply 242 to 244 °C

-- ask Which melting point is reported for this molecule? N#C[C@@H]1CCCN1C(=O)CNC1CCC(Nc2ccc(C(F)(F)F)cn2)CC1 (some centres unmarked) (as salt: hydrochloride)
-- reply 270 to 273 °C

-- ask Item under review: N#C[C@@H]1CCCN1C(=O)CNC1CCN(C(=O)C2CCCCC2)CC1 (as salt: hydrochloride) . Reported melting point?
-- reply > 300 °C

-- ask Fill in the blank: the reported melting point of N#C[C@@H]1CCCN1C(=O)CN[C@H]1CC[C@H](Nc2ncccc2C(F)(F)F)CC1 (as salt: hydrochloride) is ____.
-- reply 289 to 292 °C

-- ask Fill blank: measured melting point of the molecule N#C[C@@H]1CCCN1C(=O)CNC1CCN(c2nc(-c3ccc(Cl)cc3)cs2)CC1 (as salt: hydrochloride) is ____.
-- reply 160 to 162 °C
